Provenance of the data: ChEMBL document CHEMBL3351292

- Measured Target: Transcriptional coactivator YAP1/Transcriptional enhancer factor TEF-1 (Homo sapiens) (UniProt P46937+P28347)
- Sequence (P28347 whole entry, looked up): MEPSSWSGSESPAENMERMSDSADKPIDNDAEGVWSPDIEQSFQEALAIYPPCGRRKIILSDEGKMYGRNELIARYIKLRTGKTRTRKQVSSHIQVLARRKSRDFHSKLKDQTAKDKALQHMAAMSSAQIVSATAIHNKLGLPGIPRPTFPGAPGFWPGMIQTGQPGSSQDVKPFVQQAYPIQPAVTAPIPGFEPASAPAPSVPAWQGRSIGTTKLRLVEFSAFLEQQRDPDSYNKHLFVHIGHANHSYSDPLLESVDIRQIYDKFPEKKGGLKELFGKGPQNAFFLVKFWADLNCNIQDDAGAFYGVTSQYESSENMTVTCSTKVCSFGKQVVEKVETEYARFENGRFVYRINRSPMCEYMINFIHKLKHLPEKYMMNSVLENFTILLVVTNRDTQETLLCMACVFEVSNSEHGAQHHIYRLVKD
- Sequence (P46937 whole entry, looked up): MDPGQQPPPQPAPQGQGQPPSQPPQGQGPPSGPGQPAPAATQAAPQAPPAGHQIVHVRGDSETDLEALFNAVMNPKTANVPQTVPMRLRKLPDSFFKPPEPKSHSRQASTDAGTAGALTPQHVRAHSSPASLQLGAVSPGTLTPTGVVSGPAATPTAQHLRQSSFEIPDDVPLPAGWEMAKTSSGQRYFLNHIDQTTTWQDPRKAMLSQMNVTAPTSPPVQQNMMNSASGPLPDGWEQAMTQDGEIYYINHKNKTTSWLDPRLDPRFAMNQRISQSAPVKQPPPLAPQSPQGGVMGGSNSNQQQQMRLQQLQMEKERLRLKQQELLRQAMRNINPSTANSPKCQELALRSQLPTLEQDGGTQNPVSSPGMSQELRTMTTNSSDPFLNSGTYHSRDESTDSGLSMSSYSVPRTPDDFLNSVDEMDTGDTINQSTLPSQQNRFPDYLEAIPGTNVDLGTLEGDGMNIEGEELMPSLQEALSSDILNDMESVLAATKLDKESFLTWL
- Procedure Text: Inhibition of YAP/ GST-TEAD1 (unknown origin) interaction at 50 uM by surface plasmon resonance assay
- Assay type: protein assay
Where a SMILES comes first, the peptide text is derived from it.
Recorded Endpoint: inhibition (%)
The reply should be a number in %, with the unit left off.

Worked examples follow.
>>> measured_result("CSCC[C@H](NC(=O)[C@@H]1CCCN1C(=O)[C@@H](NC(=O)[C@H](C)NC(=O)[C@H](CCC(N)=O)NC(=O)[C@@H]1CCCN1C(C)=O)C(C)C)C(=O)N[C@@H](CCCNC(=N)N)C(=O)N[C@@H](CC(C)C)C(=O)N[C@@H](CCCNC(=N)N)C(=O)N[C@@H](CCCCN)C(=O)N[C@@H](CC(C)C)C(=O)N1CCC[C@H]1C(=O)N[C@@H](CC(=O)O)C(=O)N[C@@H](CO)C(=O)N[C@@H](Cc1ccccc1)C(=O)N[C@@H](Cc1ccccc1)C(=O)N[C@@H](CCCCN)C(=O)N1CCC[C@H]1C(=O)N1CCC[C@H]1C(=O)N[C@@H](CCC(=O)O)C(N)=O")
52
>>> measured_result("CSCC[C@H](NC(=O)[C@@H]1CCCN1C(C)=O)C(=O)N[C@@H](CCCNC(=N)N)C(=O)N[C@@H](CC(C)C)C(=O)N[C@@H](CCCNC(=N)N)C(=O)N[C@@H](CCCCN)C(=O)N[C@@H](CC(C)C)C(=O)N1CCC[C@H]1C(=O)N[C@@H](CC(=O)O)C(=O)N[C@@H](CO)C(=O)N[C@@H](Cc1ccccc1)C(=O)N[C@@H](Cc1ccccc1)C(=O)N[C@@H](CCCCN)C(=O)N1CCC[C@H]1C(=O)N1CCC[C@H]1C(=O)N[C@@H](CCC(=O)O)C(N)=O (Ac-PMRLRKLPDSFFKPPE-NH2)")
25

Request: Given the compound CSCC[C@H](NC(=O)[C@@H]1CCCN1C(=O)[C@@H](NC(=O)[C@@H](NC(=O)[C@H](CCC(N)=O)NC(=O)[C@@H]1CCCN1C(C)=O)[C@@H](C)O)C(C)C)C(=O)N[C@@H](CCCNC(=N)N)C(=O)N[C@@H](CC(C)C)C(=O)N[C@@H](CCCNC(=N)N)C(=O)N[C@@H](CCCCN)C(=O)N[C@@H](CC(C)C)C(=O)N1CCC[C@H]1C(=O)N[C@@H](CC(=O)O)C(=O)N[C@@H](CO)C(=O)N[C@@H](Cc1ccccc1)C(=O)N[C@@H](Cc1ccccc1)C(=O)N[C@@H](CCCCN)C(=O)N1CCC[C@H]1C(N)=O (Ac-PQTVPMRLRKLPDSFFKP-NH2) , what is its reported inhibition?
Response: 42

Request: Could you share which inhibition value was measured for CSCC[C@H](NC(=O)[C@@H]1CCCN1C(=O)[C@@H](NC(=O)[C@@H](NC(=O)[C@H](CCC(N)=O)NC(=O)[C@@H]1CCCN1C(C)=O)[C@@H](C)O)C(C)C)C(=O)N[C@@H](CCCNC(=N)N)C(=O)N[C@@H](CC(C)C)C(=O)N[C@@H](CCCNC(=N)N)C(=O)N[C@@H](CCCCN)C(=O)N[C@@H](CC(C)C)C(=O)N1CCC[C@H]1C(=O)N[C@@H](CC(=O)O)C(=O)N[C@@H](CO)C(=O)N[C@@H](Cc1ccccc1)C(N)=O (Ac-PQTVPMRLRKLPDSF-NH2) ?
Response: 5.4
